- Subject Of Test: RORγ ligand binding domain (Homo sapiens, UniProt P51449)
- Method Description: RORγ radioligand competition binding assay (SPA)
- Condition Notes: competition with tritiated 2-(4-(ethylsulfonyl)phenyl)-N-(4-(2-(methoxymethyl)phenyl)thiophen-2-yl)acetamide (25 nM), hRORγ LBD
- Protocol: RORγ Radioligand Competition Binding Assay The aim of this assay is to identify compounds which bind to the RORγ ligand binding domain, by competing with tritiated 2-(4-(ethylsulfonyl)phenyl)-N-(4-(2-(methoxymethyl)phenyl)thiophen-2-yl)acetamide. […] Test plates were incubated for 16 hours and read using a LEADseeker Multimodality imaging instrument. The raw data was analysed and IC50 and Ki values for the compounds were calculated using Genedata Screener software. […]
Measure Name: IC50 (nM)

* CNC(c1ccc(NC(=O)C2c3ccc(S(C)(=O)=O)cc3CN2C(C)=O)cc1)(C(F)(F)F)C(F)(F)F (centres unmarked) | 31.6

a: CC(=O)N1Cc2cc(S(C)(=O)=O)ccc2C1C(=O)Nc1ccc(C(NC2COC2)(C(F)(F)F)C(F)(F)F)cc1 (centres unmarked)
b: N#CC(c1ccc(NC(=O)C2NCc3cc(S(=O)(=O)CC4CC4)ccc32)cc1)(C(F)(F)F)C(F)(F)F (centres unmarked)
c: COCCNC(c1ccc(NC(=O)C2c3ccc(S(C)(=O)=O)cc3CN2C(C)=O)cc1)(C(F)(F)F)C(F)(F)F (centres unmarked)
d: COC(=O)N1Cc2cc(S(C)(=O)=O)ccc2C1C(=O)Nc1ccc(C(C#N)(C(F)(F)F)C(F)(F)F)cc1 (centres unmarked)
e: CC(=O)N1Cc2cc(S(C)(=O)=O)ccc2C1C(=O)Nc1ccc(C(CC(=O)NC2CC2)(C(F)(F)F)C(F)(F)F)cc1 (centres unmarked)
Query string: List from greatest to least IC50. Could you list the labels in the order requested?
Result string: e, a, c, d, b
(e: 794 nM, a: 126 nM, c: 31.6 nM, d: 12.6 nM, b: 7.94 nM)

1: CC(=O)N1Cc2cc(S(C)(=O)=O)ccc2C1C(=O)Nc1ccc(C(CCF)(C(F)(F)F)C(F)(F)F)cc1 (centres unmarked)
2: CC(=O)N1Cc2cc(S(C)(=O)=O)ccc2C1C(=O)Nc1ccc(C(N2CCCC2)(C(F)(F)F)C(F)(F)F)cc1 (centres unmarked)
Query string: # returns the entry with the larger IC50; inputs 1 and 2 Identify your selection by its label.
Result string: 1
(1: 10 nM, 2: 5.01 nM)
